Target: GPR73 (prokineticin 1 receptor) (Homo sapiens)
Construct: expressed in transfected cells; host or cells: HEK 293
Test: PK1 functional assay: Ca2+ mobilization screening for PK1 antagonists on the FLIPR
Format: cell-based
Details: HEK293, 10 μM compound; HEK 293 GPR73 cells; multiple values = multiple testing; read-out: Ca^2+ Mobilization % Inh @ 10 μM
Quick reference: inhibition at 10 µM of the listed items.
measured-metric: inhibition at 10 µM (%)

>>> print(df.to_string())
                                 smiles_code                            assayed_target  number
 0  COc1ccc(Cn2c(NCc3ccc(C)nc3)nc(=O)n(Cc3ccc(OC)cc3)c2=O)cc1  GPR73 (prokineticin 1 receptor) (Homo sapiens)      94
 1  COc1ccc(Cn2c(=O)nc(NCc3cnc(C)cc3C)n(Cc3ccc4sccc4c3)c2=O)cc1  GPR73 (prokineticin 1 receptor) (Homo sapiens)      76
 2  COc1ccc(Cn2c(CCc3cccnc3)cc(=O)n(Cc3ccc(OC)cc3)c2=O)cc1  GPR73 (prokineticin 1 receptor) (Homo sapiens)      78
 3  COCCCCCn1c(NCc2c(C)cc(C)nc2N)nc(=O)n(Cc2ccc(Cl)c(Cl)c2)c1=O  GPR73 (prokineticin 1 receptor) (Homo sapiens)      99
 4  COc1ccc(Cn2c(=O)nc(NCc3cccnc3N)n(Cc3ccncc3)c2=O)cc1  GPR73 (prokineticin 1 receptor) (Homo sapiens)      67
 5  COc1ccc(Cn2c(NCc3cnc(C)nc3N)nc(=O)n(Cc3ccc(OC)cc3)c2=O)cc1  GPR73 (prokineticin 1 receptor) (Homo sapiens)     103
 6  COC(=O)c1cccc(Cn2c(NCc3cccnc3N)nc(=O)n(Cc3ccc(OC)cc3)c2=O)c1  GPR73 (prokineticin 1 receptor) (Homo sapiens)      96
 7  COc1ccc(Cn2c(CCc3cccc(N)n3)cc(=O)n(Cc3ccc(OC)cc3)c2=O)cc1  GPR73 (prokineticin 1 receptor) (Homo sapiens)      53
 8  COc1ccc(Cn2c(NCc3cccnc3NCCC(C)C)nc(=O)n(Cc3ccc(OC)cc3)c2=O)cc1  GPR73 (prokineticin 1 receptor) (Homo sapiens)      55
 9  COCCNc1ncccc1CNc1nc(=O)n(CCOc2ccccc2)c(=O)n1Cc1ccc(OC)cc1  GPR73 (prokineticin 1 receptor) (Homo sapiens)      81
10  Cc1cc(-c2ccc(F)cc2)nc(N)c1CNc1nc(=O)n(Cc2ccc3c(c2)CCO3)c(=O)n1Cc1ccc(OC(F)F)cc1  GPR73 (prokineticin 1 receptor) (Homo sapiens)    0.89
11  COc1ccc(Cn2c(=O)nc(NCc3cnc(C)cc3C)n(Cc3ccc(Cl)cc3)c2=O)cc1  GPR73 (prokineticin 1 receptor) (Homo sapiens)      97
12  COc1ccc(Cn2c(NCc3cccnc3N)nc(=O)n(Cc3ccc(OC(F)(F)F)cc3)c2=O)cc1  GPR73 (prokineticin 1 receptor) (Homo sapiens)      40
13  Cc1cc(C)c(CNc2nc(=O)n(Cc3ccc(CO)cc3)c(=O)n2Cc2ccc(OC(F)F)cc2)cn1  GPR73 (prokineticin 1 receptor) (Homo sapiens)      50
14  COc1ccc(Cn2c(NCc3cccnc3NCCO)nc(=O)n(Cc3ccc(F)cc3)c2=O)cc1  GPR73 (prokineticin 1 receptor) (Homo sapiens)     111
15  CCc1ccccc1Cn1c(NCc2cccnc2N)nc(=O)n(Cc2ccc(OC)cc2)c1=O  GPR73 (prokineticin 1 receptor) (Homo sapiens)      31
16  COc1ccc(Cn2c(NCc3cc(C)ccn3)nc(=O)n(Cc3ccc(OC)cc3)c2=O)cc1  GPR73 (prokineticin 1 receptor) (Homo sapiens)      52
17  COc1ccc(Cn2c(NCc3cccnc3NCc3ccco3)nc(=O)n(Cc3ccc(OC)cc3)c2=O)cc1  GPR73 (prokineticin 1 receptor) (Homo sapiens)      93
18  COc1ccc(Cn2c(NCc3cccnc3N)nc(=O)n(Cc3ccc(OC)cc3)c2=O)cc1  GPR73 (prokineticin 1 receptor) (Homo sapiens)      83
19  COc1ccc(Cn2c(SCc3cccnc3)cc(=O)n(Cc3ccc(OC)cc3)c2=O)cc1  GPR73 (prokineticin 1 receptor) (Homo sapiens)      52
20  COc1ccc(Cn2c(CCc3ccccn3)cc(=O)n(Cc3ccc(OC)cc3)c2=O)cc1  GPR73 (prokineticin 1 receptor) (Homo sapiens)      41
21  CNc1ncccc1CNc1nc(=O)n(Cc2ccc(F)cc2)c(=O)n1Cc1ccc(OC)cc1  GPR73 (prokineticin 1 receptor) (Homo sapiens)      90
22  COc1ccc(Cn2c(=O)nc(NCc3cnc(C)cc3C)n(Cc3cccc(OC(F)(F)F)c3)c2=O)cc1  GPR73 (prokineticin 1 receptor) (Homo sapiens)      91
23  COc1ccc(Cn2c(=O)nc(NCc3cnc(C)cc3C)n(Cc3ccccc3OC(F)(F)F)c2=O)cc1  GPR73 (prokineticin 1 receptor) (Homo sapiens)      85
24  Cc1cc(C)c(CNc2nc(=O)n(Cc3ccc(O)cc3)c(=O)n2Cc2ccc(OC(F)F)cc2)cn1  GPR73 (prokineticin 1 receptor) (Homo sapiens)      61
25  COc1ccc(Cn2c(NCc3c(C)cc(C)nc3N)nc(=O)n(Cc3ccc4c(c3)nnn4C)c2=O)cc1  GPR73 (prokineticin 1 receptor) (Homo sapiens)      98
26  COc1ccc(Cn2c(NCc3ccc(-c4ccc(F)cc4)nc3)nc(=O)n(Cc3ccc(OC)cc3)c2=O)cc1  GPR73 (prokineticin 1 receptor) (Homo sapiens)      89
27  COc1ccc(Cn2c(=O)nc(NCc3cnc(C)cc3C)n(Cc3ccc(OC)c(F)c3)c2=O)cc1  GPR73 (prokineticin 1 receptor) (Homo sapiens)     102
28  COc1ccc(Cn2c(NCc3cnc(C)cc3C)nc(=O)n(Cc3ccc(OC)cc3)c2=O)cc1  GPR73 (prokineticin 1 receptor) (Homo sapiens)      88
29  COc1ccc(Cn2c(NCc3cnc(C)cc3C)cc(=O)n(Cc3ccc(OC)cc3)c2=O)cc1  GPR73 (prokineticin 1 receptor) (Homo sapiens)      87
30  Cc1cc(C)c(CNc2nc(=O)n(Cc3ccc4c(c3)nnn4C)c(=O)n2Cc2ccc3c(c2)CCO3)cn1  GPR73 (prokineticin 1 receptor) (Homo sapiens)      45
31  CCc1ccc(Cn2c(NCc3cccnc3N)nc(=O)n(Cc3ccc(OC)cc3)c2=O)cc1  GPR73 (prokineticin 1 receptor) (Homo sapiens)      83

###

Biological target: GPR73 (prokineticin 1 receptor) (Homo sapiens, UniProt Q8TCW9)
Sequence (Q8TCW9 whole entry, species assumed): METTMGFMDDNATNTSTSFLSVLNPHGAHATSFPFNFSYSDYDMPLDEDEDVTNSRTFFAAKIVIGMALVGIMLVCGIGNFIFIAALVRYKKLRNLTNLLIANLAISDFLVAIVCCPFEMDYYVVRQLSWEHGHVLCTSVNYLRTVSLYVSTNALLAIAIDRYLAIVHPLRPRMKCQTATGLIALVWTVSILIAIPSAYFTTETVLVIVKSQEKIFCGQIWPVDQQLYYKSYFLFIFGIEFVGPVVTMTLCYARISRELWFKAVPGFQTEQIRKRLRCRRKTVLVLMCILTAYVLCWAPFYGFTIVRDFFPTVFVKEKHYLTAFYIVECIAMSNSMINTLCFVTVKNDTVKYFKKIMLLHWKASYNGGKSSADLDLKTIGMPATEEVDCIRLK
Test: PK1 functional assay: Ca2+ mobilization screening for PK1 antagonists on the FLIPR
Conditions: HEK 293 GPR73 cells; PK1 ligand preparation at its EC50; multiple values = multiple testing; read-out: Ca^2+ Mobilization IC50
pIC50: −log10 of the molar value.
measured-metric: pIC50

                                smiles_code                            assayed_target  measured_metric  comparison_sign  number
0  Cc1cc(COCc2ccccc2)c(CNc2nc(=O)n(Cc3ccc4c(c3)CCO4)c(=O)n2Cc2ccc(OC(F)F)cc2)c(N)n1  GPR73 (prokineticin 1 receptor) (Homo sapiens, UniProt Q8TCW9)            pIC50                <    5.00
1  COc1ccc(Cn2c(NCc3cc(C(F)(F)F)ccn3)nc(=O)n(Cc3ccc(OC)cc3)c2=O)cc1  GPR73 (prokineticin 1 receptor) (Homo sapiens, UniProt Q8TCW9)            pIC50                =    5.77
2  COc1ccc(Cn2c(CCc3ccncc3)cc(=O)n(Cc3ccc(OC)cc3)c2=O)cc1  GPR73 (prokineticin 1 receptor) (Homo sapiens, UniProt Q8TCW9)            pIC50                =    5.61
3  COc1ccc(Cn2c(=O)nc(NCc3cccnc3N)n(Cc3cccc([N+](=O)[O-])c3)c2=O)cc1  GPR73 (prokineticin 1 receptor) (Homo sapiens, UniProt Q8TCW9)            pIC50                <    5.00

###

Target: UniProtKB Q8TCW9
Assay: PK1 functional assay: Ca2+ mobilization screening for PK1 antagonists on the FLIPR
Conditions: HEK 293 GPR73 cells; PK1 ligand preparation at its EC50; multiple values = multiple testing; read-out: Ca^2+ Mobilization IC50
measured-metric: IC50

>>> print(df.to_string())
                                    compound  measured_metric      result
 0  COc1ccc(Cn2c(=O)nc(NCc3cnc(C)cc3C)n(Cc3cccc(OC(F)(F)F)c3)c2=O)cc1             IC50      100 nM
 1  Nc1ncccc1CNc1nc(=O)n(Cc2ccc(F)cc2)c(=O)n1Cc1ccc(OC(F)(F)F)cc1             IC50     3980 nM
 2  COc1ccc(Cn2c(NCc3cnc(C)cc3C)nc(=O)n(Cc3ccc(OC)c(F)c3)c2=O)cc1             IC50      104 nM
 3  COc1ccc(Cn2c(NCc3cccnc3N)cc(=O)n(Cc3ccc(OC)cc3)c2=O)cc1             IC50       45 nM
 4  COc1ccc(Cn2c(NCc3cccnc3NC3CCCCC3)nc(=O)n(Cc3ccc(F)cc3)c2=O)cc1             IC50      939 nM
 5  COCCNc1ncccc1CNc1nc(=O)n(CCc2ccccc2)c(=O)n1Cc1ccc(OC)cc1             IC50  > 10000 nM
 6  COc1ccc(Cn2c(SCc3cccnc3)cc(=O)n(Cc3ccc(OC)cc3)c2=O)cc1             IC50     4580 nM
 7  C=CCC(c1ccc(OC)cc1)n1c(=O)nc(NCc2cccnc2N)n(Cc2ccc(OC)cc2)c1=O (centres unmarked)             IC50      956 nM
 8  Nc1ncccc1CNc1nc(=O)n(Cc2ccc3[nH]ccc3c2)c(=O)n1Cc1ccc(OC(F)F)cc1             IC50     3400 nM
 9  COc1ccc(Cn2c(NCc3cccnc3N)nc(=O)n(Cc3cc4ccccc4o3)c2=O)cc1             IC50      231 nM
10  CCCCNc1ncccc1CNc1nc(=O)n(Cc2ccc(F)cc2)c(=O)n1Cc1ccc(OC)cc1             IC50      348 nM
11  COc1ccc(Cn2c(CCc3cccnc3C(N)=O)cc(=O)n(Cc3ccc(OC)cc3)c2=O)cc1             IC50  > 10000 nM
12  Cc1cc(C)c(CNc2nc(=O)n(Cc3ccccc3C#N)c(=O)n2Cc2ccc(OC(F)F)cc2)cn1             IC50  > 10000 nM
13  COCCCCCn1c(NCc2c(C)cc(C)nc2N)nc(=O)n(Cc2ccc(Cl)c(Cl)c2)c1=O             IC50       78 nM
14  COc1ccc(Cn2c(NCc3ncccc3C(F)(F)F)nc(=O)n(Cc3ccc(OC)cc3)c2=O)cc1             IC50     1270 nM
15  COc1ccc(Cn2c(=O)nc(NCc3cccnc3N)n(Cc3ccccc3OC)c2=O)cc1             IC50     5160 nM
16  COc1ccc(Cn2c(NCc3cccnc3N3CCNCC3)nc(=O)n(Cc3ccc(OC)cc3)c2=O)cc1             IC50     1290 nM
17  COc1ccc(Cn2c(=O)nc(NCc3cccnc3N)n(Cc3ccccc3OC(F)(F)F)c2=O)cc1             IC50  > 10000 nM
18  COc1ccc(Cn2c(=O)nc(NCc3cnc(C)cc3C)n(Cc3ccc(N4C(=O)c5ccccc5C4=O)cc3)c2=O)cc1             IC50      240 nM
19  C=CCC(c1ccc(OC)cc1)n1c(=O)nc(NCc2cnc(C)cc2C)n(Cc2ccc(OC)cc2)c1=O (centres unmarked)             IC50      681 nM
20  COC(=O)c1cccc(Cn2c(NCc3cccnc3N)nc(=O)n(Cc3ccc(OC)cc3)c2=O)c1             IC50      116 nM
21  COc1ccc(Cn2c(=O)nc(NCc3cccnc3N)n(Cc3ccc(OC(F)F)cc3)c2=O)cc1             IC50       34 nM
22  CCc1ccccc1Cn1c(NCc2cccnc2N)nc(=O)n(Cc2ccc(OC)cc2)c1=O             IC50  > 10000 nM
23  COc1ccc(Cn2c(NCc3c(N)nc4c(c3-c3ccccc3)CCC4)nc(=O)n(Cc3ccc(OC)cc3)c2=O)cc1             IC50     8320 nM
24  COc1ccc(Cn2c(NCc3cccnc3N)nc(=O)n(Cc3ccc(OC(F)F)cc3)c2=O)cc1             IC50     1220 nM
25  COc1ccc(Cn2c(NCc3c(C)cc(C)nc3N)nc(=O)n(Cc3ccc4c(c3)nnn4C)c2=O)cc1             IC50       60 nM
26  COc1ccc(Cn2c(NCc3c(COCc4ccccc4)cc(C)nc3N)nc(=O)n(Cc3ccc(OC)cc3)c2=O)cc1             IC50     8630 nM
27  Cc1cc(C)c(CNc2nc(=O)n(Cc3ccc(C(N)=O)cc3)c(=O)n2Cc2ccc(OC(F)F)cc2)cn1             IC50     6220 nM
28  COCCCCCn1c(=O)nc(NCc2cnc(C)cc2C)n(Cc2ccc(OC)cc2)c1=O             IC50     2840 nM
29  COc1ccc(Cn2c(NCc3cccnc3N)nc(=O)n(Cc3ccc(SC)cc3)c2=O)cc1             IC50      115 nM
30  Cc1cc(C)c(CNc2nc(=O)n(Cc3ccc4c(c3)OCCO4)c(=O)n2Cc2ccc(OC(F)F)cc2)cn1             IC50  > 10000 nM
31  Cc1cc(C)c(CNc2nc(=O)n(Cc3ccc4c(c3)CCO4)c(=O)n2Cc2ccc(OC(F)F)cc2)cn1             IC50     4530 nM
